The following molecules are listed with their measured cell viability values.
# Test system: SEM cells
# assayRemarks: cell viability relative to DMSO control; higher = less cytotoxic
# reportedConditions: RPMI 5 mM glucose + 10% FBS; 48 h; 0.00702 µM
readoutKind: cell viability (%)

molecule="C[C@H](CCC(=O)O)[C@H]1CCC2C3C[C@H](O)[C@@H]4C[C@H](O)CC[C@]4(C)C3CC[C@@]21C (stereo partly drawn)" readoutkind="cell viability" numericvalue=129
molecule="CC1(CN2CCC(n3c(=O)[nH]c4ccccc43)CC2)OCc2ccccc2-n2cccc21 (stereo not drawn)" readoutkind="cell viability" numericvalue=89
molecule=O=C(Nc1c[nH]nc1-c1nc2cc(CN3CCOCC3)ccc2[nH]1)NC1CC1 readoutkind="cell viability" numericvalue=107
molecule="CC\\12CCC(=O)\\C=C1CCC3C2CCC4(C)C3CCC4(O)C#C (stereo not drawn)" readoutkind="cell viability" numericvalue=99.2
molecule=O=C(CCCCCCC(=O)Nc1cccnc1)NO readoutkind="cell viability" numericvalue=102
molecule=O=S(=O)([O-])CCS.[Na+] readoutkind="cell viability" numericvalue=89.6
molecule=CC(=O)N[C@@H]1[C@@H](NC(N)=N)\C=C(/O[C@H]1[C@H](O)[C@H](O)CO)C(O)=O readoutkind="cell viability" numericvalue=125
molecule=NC(=O)[C@H]1CCS[C@@H]2C[C@]3(CCCN3C(=O)Cc3ccc(NC(=O)COc4ccc(Cl)cc4Cl)cc3)C(=O)N12 readoutkind="cell viability" numericvalue=112

----------
Form field: cell viability (one value per entry).
# Test system: P12-Ichikawa
# assayRemarks: cell viability relative to DMSO control; higher = less cytotoxic
# reportedConditions: RPMI 5 mM glucose + 10% FBS; 48 h; 5.12 µM
readoutKind: cell viability (%)

molecule=COc1cc(Nc2c(C#N)cnc3cc(OCCCN4CCN(C)CC4)c(OC)cc23)c(Cl)cc1Cl measureunit=% numericvalue=54.2
molecule=CC(C)N(C[C@H]1O[C@@H](n2cnc3c(N)ncnc32)[C@H](O)[C@@H]1O)[C@H]1C[C@@H](CCc2nc3cc(C(C)(C)C)ccc3[nH]2)C1 measureunit=% numericvalue=108
molecule=OC1=CC=C(C=C1)\C2=C\OC3=C(C(=CC(=C3)O)O)C2=O measureunit=% numericvalue=115
molecule=CC(C)(F)C[C@H](N[C@@H](c1ccc(-c2ccc([S+](C)(=O)[O-])cc2)cc1)C(F)(F)F)C(=O)NC1(C#N)CC1 measureunit=% numericvalue=113
molecule=O=C1\C=C/C=C2/[C@H]3CNC[C@H](C3)CN12 measureunit=% numericvalue=113
molecule="C=C1C(=O)[C@@]23C(CC[C@@H]1[C@H]2O)[C@@]12CO[C@]3(O)[C@@H](O)[C@@H]1C(C)(C)CC[C@@H]2O (stereo partly specified)" measureunit=% numericvalue=85.7

----------
The following compounds are shown together with reported cell viability values.
# System: NOMO1
# assayRemarks: cell viability relative to DMSO control; higher = less cytotoxic
# reportedConditions: RPMI 5 mM glucose + 10% FBS; 48 h; 0.000781 µM
readoutKind: cell viability (%)

compound="N[S+](=O)([O-])c1cc2c(cc1Cl)NC(C(Cl)Cl)N[S+]2(=O)[O-] (stereo not given)" numericvalue=105
compound=NC(=O)[C@H]1CCS[C@@H]2C[C@]3(CCCN3C(=O)Cc3ccc(NC(=O)COc4ccc(Cl)cc4Cl)cc3)C(=O)N12 numericvalue=107
compound=CCc1cc2c(cc1N1CCC(N3CCOCC3)CC1)C(C)(C)c1[nH]c3cc(C#N)ccc3c1C2=O numericvalue=91.1
compound=CC(=O)OC[C@H]1O[C@@H]([S-])[C@H](OC(C)=O)[C@@H](OC(C)=O)[C@@H]1OC(C)=O.CCP(CC)CC.[Au+] numericvalue=86.7
compound=Cc1nc2cc(C(=O)N3CCC4(CC3)CC(=O)c3c(cnn3C(C)C)C4)ccc2[nH]1 numericvalue=118

----------
# Test system: P12-Ichikawa
# assayRemarks: cell viability relative to DMSO control; higher = less cytotoxic
# reportedConditions: RPMI 5 mM glucose + 10% FBS; 48 h; 0.00702 µM
readoutKind: cell viability (%)

molecule=O=C(CCCCCCC(=O)Nc1ccc([C@H]2O[C@@H](CSc3nc(-c4ccccc4)c(-c4ccccc4)o3)C[C@@H](c3ccc(CO)cc3)O2)cc1)NO measureunit=% numericvalue=134
molecule=CCOC(=O)[C@@]1(CCCCCCOc2ccc(Cl)cc2)CO1 measureunit=% numericvalue=114
molecule=COc1cc2ncn(-c3cc(OCc4ccccc4[S+](C)(=O)[O-])c(C#N)s3)c2cc1OC measureunit=% numericvalue=96.8
molecule=O=C(Nc1nnc(-c2ccco2)o1)c1cc(-c2ccccc2)nc2ccccc12 measureunit=% numericvalue=115
molecule=Cc1ccc([N+](=O)[O-])cc1[S+](=O)([O-])N(C)/N=C/c1cnc2ccc(Br)cn12 measureunit=% numericvalue=112
molecule=OC1=CC2=C(C=C1)C(=O)\C(=C(O2)\C3=CC(=C(O)C=C3)O)O measureunit=% numericvalue=97.5
molecule=C[C@@H]1CN(Cc2ccc(F)cc2)[C@@H](C)CN1C(=O)c1cc2c(C(=O)C(=O)N(C)C)cn(C)c2cc1Cl measureunit=% numericvalue=111
molecule=O=C(CCc1ccc(O)cc1)c1c(O)cc(O)cc1O measureunit=% numericvalue=100
molecule=CCn1c(-c2nonc2N)nc2c(C#CC(C)(C)O)ncc(OC[C@H]3CCCNC3)c21 measureunit=% numericvalue=76.2
molecule=O=C1\C=C/C=C2/[C@H]3CNC[C@H](C3)CN12 measureunit=% numericvalue=120
molecule="CCOC(=O)C(C#N)C\\1C2=CC(=CC=C2O\\C(=C1C(=O)OCC)N)Br (stereo not given)" measureunit=% numericvalue=106
molecule=C[C@@H]1CCN(C(=O)CC#N)C[C@@H]1N(C)c1ncnc2[nH]ccc12 measureunit=% numericvalue=83.6
molecule=O=C([O-])C[C@H](O)C[C@H](O)/C=C/c1c(C2CC2)nc2ccccc2c1-c1ccc(F)cc1 measureunit=% numericvalue=116
molecule=C[C@]12Cc3cn[nH]c3C[C@@H]1CC[C@@H]1[C@@H]2CC[C@@]2(C)[C@H]1CC[C@]2(C)O measureunit=% numericvalue=123
molecule=Cc1cc(OCCC[S+](C)(=O)[O-])cc(C)c1-c1cccc(COc2ccc3c(c2)OC[C@H]3CC(=O)O)c1 measureunit=% numericvalue=110

----------
# System: NOMO1
# assayRemarks: cell viability relative to DMSO control; higher = less cytotoxic
# reportedConditions: HPLM + 10% dialyzed FBS; 48 h; 0.569 µM
The following compounds are shown together with reported cell viability values.
readoutKind: cell viability (%)

smilescode=CC(C)(F)C[C@H](N[C@@H](c1ccc(-c2ccc([S+](C)(=O)[O-])cc2)cc1)C(F)(F)F)C(=O)NC1(C#N)CC1 readoutkind="cell viability" numericvalue=107
smilescode=CN(C)c1ccc2nc3ccc(N(C)C)cc3[s+]c2c1 readoutkind="cell viability" numericvalue=102
smilescode=CC(C)=CCC/C(C)=C/CC/C(C)=C/CSc1ccccc1C(=O)O readoutkind="cell viability" numericvalue=90.4

----------
# Test system: SEM cells
# assayRemarks: cell viability relative to DMSO control; higher = less cytotoxic
# reportedConditions: RPMI 5 mM glucose + 10% FBS; 48 h; 0.00234 µM
readoutKind: cell viability (%)

compound=c1ccc2c(Cc3c[nH]c4ccccc34)c[nH]c2c1 measureunit=% numericvalue=92.9
compound=O=C(Nc1c[nH]nc1-c1nc2cc(CN3CCOCC3)ccc2[nH]1)NC1CC1 measureunit=% numericvalue=90
compound="CC\\12CCC(=O)\\C=C1CCC3C2CCC4(C)C3CCC4(O)C#C (configuration not stated)" measureunit=% numericvalue=92.2
compound=CN1CCN(c2c(F)cc3c(=O)c(C(=O)O)cn(CCF)c3c2F)CC1 measureunit=% numericvalue=96.4
compound=CC(C)(S)[C@@H](N)C(=O)O measureunit=% numericvalue=94.5
compound="C[C@H](CCC(=O)O)[C@H]1CCC2C3C[C@H](O)[C@@H]4C[C@H](O)CC[C@]4(C)C3CC[C@@]21C (some centres not stated)" measureunit=% numericvalue=122
compound=CCN1C[C@H](C)[N]2C(=C(O)C3=C2\C(=N/N(CC4=CC=C(F)C(=C4)Cl)C3=O)C(=O)NC)C1=O measureunit=% numericvalue=115
compound=CO[C@@]12[C@H](COC(N)=O)C/3=C(N1C[C@@H]4N[C@H]24)/C(=O)/C(=C(N)\C3=O)C measureunit=% numericvalue=97.2
compound="N[C@H]2CN(CC12CC1)c3c(F)cc4c(c3Cl)[N@@](C=C(C4=O)C(=O)O)C5C[C@H]5F (some centres not stated)" measureunit=% numericvalue=126
compound=O=C(Nc1nnc(-c2ccco2)o1)c1cc(-c2ccccc2)nc2ccccc12 measureunit=% numericvalue=75.1
compound=O=C(CCc1ccc(O)cc1)c1c(O)cc(O)cc1O measureunit=% numericvalue=102
compound=COC(=O)Nc1nc2cc(C(=O)c3ccc(F)cc3)ccc2[nH]1 measureunit=% numericvalue=105
